Reported values of pIC50 for individual entries
Target: FGFR2 (Homo sapiens (Human), UniProt P21802)
Sequence (P21802 22-821): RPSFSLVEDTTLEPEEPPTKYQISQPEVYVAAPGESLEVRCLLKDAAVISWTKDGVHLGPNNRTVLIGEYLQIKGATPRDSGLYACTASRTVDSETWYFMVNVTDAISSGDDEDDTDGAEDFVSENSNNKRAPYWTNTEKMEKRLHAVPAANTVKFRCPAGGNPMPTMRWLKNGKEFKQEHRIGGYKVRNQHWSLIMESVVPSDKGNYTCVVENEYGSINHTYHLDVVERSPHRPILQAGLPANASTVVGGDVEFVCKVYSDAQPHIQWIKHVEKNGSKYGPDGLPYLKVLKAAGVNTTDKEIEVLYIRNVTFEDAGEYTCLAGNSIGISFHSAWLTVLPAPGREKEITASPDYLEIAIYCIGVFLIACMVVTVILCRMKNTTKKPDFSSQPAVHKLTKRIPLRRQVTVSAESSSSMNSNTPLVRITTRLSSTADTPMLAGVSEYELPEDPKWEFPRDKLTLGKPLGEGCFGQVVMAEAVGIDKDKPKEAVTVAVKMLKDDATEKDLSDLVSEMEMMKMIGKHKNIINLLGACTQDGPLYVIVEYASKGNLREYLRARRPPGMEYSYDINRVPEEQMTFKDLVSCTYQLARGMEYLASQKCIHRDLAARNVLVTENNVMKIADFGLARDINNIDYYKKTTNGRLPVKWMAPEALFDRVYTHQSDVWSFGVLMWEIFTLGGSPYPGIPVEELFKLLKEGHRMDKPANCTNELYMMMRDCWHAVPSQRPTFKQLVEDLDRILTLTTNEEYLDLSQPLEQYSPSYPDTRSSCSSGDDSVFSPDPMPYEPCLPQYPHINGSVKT
Test: Kinase inhibition, Mobility-Shift Assay
Type: biochemical
Conditions: class; read-out: FGFR2 range of activity effects (IC50)
pIC50: −log10 of the molar value.

Below, 3 molecules whose answers are already recorded.
# Molecule, pIC50
rows = [
    ("COc1cc2nccc(Oc3c(F)cc(NC(=O)N[C@H](C)CO)c(Cl)c3F)c2cc1C(N)=O", "< 7.00"),
    ("COc1cc2nccc(Oc3c(F)cc(NC(=O)NC(C)C(F)(F)F)c(Cl)c3F)c2cc1C(N)=O (centres unmarked)", "< 7.00"),
    ("COc1cc2nccc(Oc3c(F)cc(NC(=O)NC4CC4(F)F)c(F)c3F)c2cc1C(N)=O (centres unmarked)", "< 7.00"),
]

Data request: Supply reported pIC50 belonging to this molecule: COc1cc2nccc(Oc3c(F)cc(NC(=O)NC4CC(O)C4)c(Cl)c3F)c2cc1C(N)=O (centres unmarked) [III-29]
Data returned: < 7.00

Data request: Supply reported pIC50 belonging to this molecule: `COc1cc2nccc(Oc3c(F)cc(NC(=O)NC4CC4)c(F)c3F)c2cc1C(N)=O`
Data returned: 7.00 to 7.52

Data request: Supply reported pIC50 belonging to this molecule: `COc1cc2nccc(Oc3c(F)c(F)c(NC(=O)NC4CC4)c(F)c3F)c2cc1C(N)=O`
Data returned: < 7.00

Data request: Supply reported pIC50 belonging to this molecule: `COc1cc2nccc(Oc3c(F)c(N(C)C)c(NC(=O)NC4CC4)c(N(C)C)c3F)c2cc1C(N)=O`
Data returned: < 7.00

* * *

Target: C-MET (Homo sapiens (Human), UniProt P08581)
Sequence (P08581 25-1390): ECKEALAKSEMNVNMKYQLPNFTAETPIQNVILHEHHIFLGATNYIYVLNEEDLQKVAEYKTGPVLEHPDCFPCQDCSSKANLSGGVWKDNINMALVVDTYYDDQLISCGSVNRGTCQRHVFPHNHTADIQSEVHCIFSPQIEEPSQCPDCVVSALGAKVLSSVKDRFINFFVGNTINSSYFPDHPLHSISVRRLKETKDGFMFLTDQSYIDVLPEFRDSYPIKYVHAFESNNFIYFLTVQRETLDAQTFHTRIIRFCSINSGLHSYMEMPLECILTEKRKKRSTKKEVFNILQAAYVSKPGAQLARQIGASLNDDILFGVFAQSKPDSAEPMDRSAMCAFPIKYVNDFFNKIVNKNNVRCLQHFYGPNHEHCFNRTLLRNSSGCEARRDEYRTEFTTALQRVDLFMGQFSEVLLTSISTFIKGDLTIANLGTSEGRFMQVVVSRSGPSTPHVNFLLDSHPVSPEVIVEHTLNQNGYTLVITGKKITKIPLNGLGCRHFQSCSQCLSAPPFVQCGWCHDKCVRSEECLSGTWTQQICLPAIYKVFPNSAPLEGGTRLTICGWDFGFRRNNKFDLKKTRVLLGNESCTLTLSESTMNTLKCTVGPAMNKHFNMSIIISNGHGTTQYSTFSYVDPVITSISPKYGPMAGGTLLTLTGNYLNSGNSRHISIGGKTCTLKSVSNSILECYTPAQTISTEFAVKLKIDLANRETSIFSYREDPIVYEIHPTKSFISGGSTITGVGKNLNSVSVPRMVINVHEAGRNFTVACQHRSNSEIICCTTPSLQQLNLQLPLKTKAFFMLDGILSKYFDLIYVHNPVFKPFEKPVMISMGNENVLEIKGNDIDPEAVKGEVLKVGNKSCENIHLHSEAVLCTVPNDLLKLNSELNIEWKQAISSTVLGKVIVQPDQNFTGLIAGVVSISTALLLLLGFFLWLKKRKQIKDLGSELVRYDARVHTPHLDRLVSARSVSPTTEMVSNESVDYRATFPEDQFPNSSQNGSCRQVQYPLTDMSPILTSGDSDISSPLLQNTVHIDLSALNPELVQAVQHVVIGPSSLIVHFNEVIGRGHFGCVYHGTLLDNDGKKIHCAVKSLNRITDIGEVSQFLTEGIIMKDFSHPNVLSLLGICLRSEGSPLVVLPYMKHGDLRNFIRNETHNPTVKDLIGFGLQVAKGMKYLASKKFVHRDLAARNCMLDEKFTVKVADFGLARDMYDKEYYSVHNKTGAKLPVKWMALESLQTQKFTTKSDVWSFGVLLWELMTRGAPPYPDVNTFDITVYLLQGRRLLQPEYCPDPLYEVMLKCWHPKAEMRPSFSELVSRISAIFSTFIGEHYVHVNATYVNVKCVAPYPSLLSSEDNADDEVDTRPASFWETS
Test: Kinase inhibition, Mobility-Shift Assay
Format: biochemical
Details: read-out: C-MET IC50
Measured Parameter: IC50

Data request: Supply reported IC50 belonging to this molecule: COc1cc2nccc(Oc3c(F)cc(NC(=O)NC4CC4)c(Cl)c3F)c2cc1C(N)=O [III-01]
Data returned: 96 nM

Data request: Supply reported IC50 belonging to this molecule: COc1cc2nccc(Oc3ccc(NC(=O)NC4CC4)c(Cl)c3)c2cc1C(N)=O [Lenvatinib, reference compound]
Data returned: > 1000 nM

Data request: Supply reported IC50 belonging to this molecule: CNC(=O)c1cc(Oc2ccc(NC(=O)Nc3ccc(Cl)c(C(F)(F)F)c3)c(F)c2)ccn1 [Regorafenib, reference compound]
Data returned: > 1000 nM

* * *

Biological target: ABL (Homo sapiens (Human), UniProt P00519)
Sequence (P00519 whole entry): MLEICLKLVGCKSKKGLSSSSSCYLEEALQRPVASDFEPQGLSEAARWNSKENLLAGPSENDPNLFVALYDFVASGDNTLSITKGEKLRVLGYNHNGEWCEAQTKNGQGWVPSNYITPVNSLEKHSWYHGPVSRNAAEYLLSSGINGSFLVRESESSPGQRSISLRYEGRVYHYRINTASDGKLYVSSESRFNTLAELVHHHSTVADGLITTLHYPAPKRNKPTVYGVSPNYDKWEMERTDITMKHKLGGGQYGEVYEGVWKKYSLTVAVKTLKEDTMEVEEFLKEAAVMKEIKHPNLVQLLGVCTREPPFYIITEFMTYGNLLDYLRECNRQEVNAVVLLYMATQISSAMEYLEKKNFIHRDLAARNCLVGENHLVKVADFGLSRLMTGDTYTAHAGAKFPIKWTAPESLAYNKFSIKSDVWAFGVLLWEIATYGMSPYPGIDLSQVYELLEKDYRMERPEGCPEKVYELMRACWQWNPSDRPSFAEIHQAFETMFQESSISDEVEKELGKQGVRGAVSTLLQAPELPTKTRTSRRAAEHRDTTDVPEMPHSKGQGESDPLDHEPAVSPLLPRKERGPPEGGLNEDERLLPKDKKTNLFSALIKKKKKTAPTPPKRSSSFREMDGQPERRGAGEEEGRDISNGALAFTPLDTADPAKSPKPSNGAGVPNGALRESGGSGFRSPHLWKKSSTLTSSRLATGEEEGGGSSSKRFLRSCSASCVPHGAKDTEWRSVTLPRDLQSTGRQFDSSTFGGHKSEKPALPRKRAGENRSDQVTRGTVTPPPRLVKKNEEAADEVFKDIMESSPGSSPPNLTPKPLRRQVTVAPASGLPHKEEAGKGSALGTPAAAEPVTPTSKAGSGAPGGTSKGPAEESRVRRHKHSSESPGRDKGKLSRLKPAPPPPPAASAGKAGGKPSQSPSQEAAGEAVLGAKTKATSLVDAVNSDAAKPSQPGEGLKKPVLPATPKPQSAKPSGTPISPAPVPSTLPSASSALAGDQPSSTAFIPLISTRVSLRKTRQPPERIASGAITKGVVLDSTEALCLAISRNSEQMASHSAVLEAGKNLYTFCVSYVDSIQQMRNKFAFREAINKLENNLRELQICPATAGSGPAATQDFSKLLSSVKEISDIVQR
Measured Parameter: pIC50
As a rule, pIC50 stands for the negative log10 of the concentration, concentration in M.

Data request: Specify the recorded pIC50 for `COc1cc2nccc(Oc3c(F)cc(NC(=O)NC4CC4)c(Cl)c3F)c2cc1C(N)=O` , system: ABL (Homo sapiens (Human), UniProt P00519).
Data returned: 7.17

* * *

// each record: one item and its pIC50 for PDGFRα (Homo sapiens (Human), UniProt P16234)
As a rule, pIC50 stands for the negative log10 of the concentration, concentration in M.

# Compound, pIC50
records = [
    ("COc1cc2nccc(Oc3c(F)cc(NC(=O)NC4CC4)c(Cl)c3F)c2cc1C(N)=O [III-01]", 8.10),
]

Proceed to the following item.
Data request: Supply reported pIC50 belonging to this compound: COc1cc2nccc(Oc3ccc(NC(=O)NC4CC4)c(Cl)c3)c2cc1C(N)=O [Lenvatinib, reference compound]
Data returned: 7.57

* * *

System: bladder cancer cell line (RT112/84)
Assay: Tumor cell proliferation inhibition (CTG, 72 h)
Format: cell-based
Settings: RT112/84 cells, class; read-out: RT112/84 range of activity (IC50)
Measured Parameter: IC50

Data request: Supply reported IC50 belonging to this compound: COc1cc2nccc(Oc3c(F)cc(NC(=O)NC4CC(O)C4)c(Cl)c3F)c2cc1C(N)=O (stereo not shown) [III-30]
Data returned: > 1000 nM

* * *

Molecular target: UniProtKB P35968
Experiment: Kinase inhibition, Mobility-Shift Assay
Format: biochemical
Details: class; read-out: KDR activity effect range (IC50)
pIC50: −log10 of the molar value.
Measured Parameter: pIC50

# Compound, pIC50
data = [
    ("COc1cc2nccc(Oc3c(F)cc(NC(=O)NC4CC4)c(F)c3F)c2cc1C(N)=O [III-16]", "8.00 to 8.70"),
    ("COc1cc2nccc(Oc3c(F)cc(NC(=O)NC4CC4(F)F)c(F)c3F)c2cc1C(N)=O (centres unmarked) [III-23]", "< 8.00"),
    ("COc1cc2nccc(Oc3c(F)cc(NC(=O)NC[C@@H](O)CO)c(Cl)c3F)c2cc1C(N)=O [III-15]", "< 8.00"),
    ("COc1cc2nccc(Oc3c(F)cc(NC(=O)NC4CC4)c(Cl)c3N(C)C)c2cc1C(N)=O [III-49]", "< 8.00"),
    ("COc1cc2nccc(Oc3c(F)cc(NC(=O)NC4CC4)c(Cl)c3F)c2cc1C(N)=O [III-01]", "> 8.70"),
    ("[2H]C([2H])([2H])Oc1c(Cl)c(NC(=O)NC2CC2)cc(F)c1Oc1ccnc2cc(OC)c(C(N)=O)cc12 [III-43]", "< 8.00"),
    ("COc1cc2nccc(Oc3c(F)cc(NC(=O)NC[C@@H](C)O)c(Cl)c3F)c2cc1C(N)=O [III-10]", "< 8.00"),
]

Data request: Supply reported pIC50 belonging to this compound: COc1cc2nccc(Oc3c(F)cc(NC(=O)NC[C@H](O)CO)c(Cl)c3F)c2cc1C(N)=O [III-14]
Data returned: < 8.00

* * *

Molecular target: FGFR4 (Homo sapiens (Human), UniProt P22455)
Sequence (P22455 22-802): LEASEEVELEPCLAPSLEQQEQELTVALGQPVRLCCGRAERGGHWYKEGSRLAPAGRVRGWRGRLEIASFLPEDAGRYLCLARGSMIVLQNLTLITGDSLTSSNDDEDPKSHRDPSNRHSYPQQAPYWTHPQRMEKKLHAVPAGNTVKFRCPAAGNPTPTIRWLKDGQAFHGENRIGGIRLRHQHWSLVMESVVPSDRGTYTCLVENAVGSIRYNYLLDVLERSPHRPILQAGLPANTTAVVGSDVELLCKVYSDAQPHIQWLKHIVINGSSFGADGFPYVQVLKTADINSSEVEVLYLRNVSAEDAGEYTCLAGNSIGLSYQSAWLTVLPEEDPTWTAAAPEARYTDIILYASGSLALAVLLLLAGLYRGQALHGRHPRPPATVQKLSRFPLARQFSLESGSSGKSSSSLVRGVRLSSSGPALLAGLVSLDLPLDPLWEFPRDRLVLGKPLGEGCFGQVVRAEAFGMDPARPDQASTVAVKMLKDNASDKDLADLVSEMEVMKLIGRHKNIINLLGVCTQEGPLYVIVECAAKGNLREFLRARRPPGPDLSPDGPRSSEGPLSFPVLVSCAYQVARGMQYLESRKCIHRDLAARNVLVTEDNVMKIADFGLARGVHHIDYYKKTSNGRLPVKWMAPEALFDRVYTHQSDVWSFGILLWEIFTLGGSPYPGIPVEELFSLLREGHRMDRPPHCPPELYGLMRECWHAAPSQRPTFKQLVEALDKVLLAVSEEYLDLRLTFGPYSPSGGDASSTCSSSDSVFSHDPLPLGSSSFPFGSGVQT
Assay: Kinase inhibition, Mobility-Shift Assay
Type: biochemical
Settings: class; read-out: FGFR4 range of activity effects (IC50)
Measured Parameter: IC50

# Compound, Target Or Test System, IC50
records = [
    ("COc1cc2nccc(Oc3c(F)cc(NC(=O)NC[C@H](C)O)c(Cl)c3F)c2cc1C(N)=O", "FGFR4 (Homo sapiens (Human), UniProt P22455)", "> 0.1 µM"),
    ("COc1cc2nccc(Oc3c(F)cc(NC(=O)NC4CC4)c(N(C)C)c3F)c2cc1C(N)=O", "FGFR4 (Homo sapiens (Human), UniProt P22455)", "> 0.1 µM"),
    ("COc1cc2nccc(Oc3c(F)cc(NC(=O)NC4CC4)c(Br)c3F)c2cc1C(N)=O", "FGFR4 (Homo sapiens (Human), UniProt P22455)", "> 0.1 µM"),
    ("COc1cc2nccc(Oc3c(F)cc(NC(=O)NC[C@@H](C)O)c(Cl)c3F)c2cc1C(N)=O", "FGFR4 (Homo sapiens (Human), UniProt P22455)", "> 0.1 µM"),
    ("C=CC1CC1(NC(=O)Nc1cc(F)c(Oc2ccnc3cc(OC)c(C(N)=O)cc23)c(F)c1Cl)C(=O)NC1CC1 (stereo not shown)", "FGFR4 (Homo sapiens (Human), UniProt P22455)", "> 0.1 µM"),
    ("COc1cc2nccc(Oc3c(F)cc(NC(=O)NC(CO)CO)c(Cl)c3F)c2cc1C(N)=O", "FGFR4 (Homo sapiens (Human), UniProt P22455)", "> 0.1 µM"),
    ("COc1cc2nccc(Oc3c(F)cc(NC(=O)NC4CCC4)c(Cl)c3F)c2cc1C(N)=O", "FGFR4 (Homo sapiens (Human), UniProt P22455)", "> 0.1 µM"),
    ("COc1cc2nccc(Oc3c(F)cc(NC(=O)N[C@H](C)CO)c(Cl)c3F)c2cc1C(N)=O", "FGFR4 (Homo sapiens (Human), UniProt P22455)", "> 0.1 µM"),
    ("COc1cc2nccc(Oc3c(F)cc(NC(=O)NC4CC4)c(Cl)c3OC)c2cc1C(N)=O", "FGFR4 (Homo sapiens (Human), UniProt P22455)", "> 0.1 µM"),
    ("CNC(=O)c1cc(Oc2ccc(NC(=O)Nc3ccc(Cl)c(C(F)(F)F)c3)c(F)c2)ccn1 [Regorafenib, reference compound]", "FGFR4 (Homo sapiens (Human), UniProt P22455)", "> 0.1 µM"),
]

Data request: Supply reported IC50 belonging to this compound: `COc1cc2nccc(Oc3c(F)cc(NC(=O)N[C@@H](C)CO)c(Cl)c3F)c2cc1C(N)=O`
Data returned: > 0.1 µM

Data request: Supply reported IC50 belonging to this compound: `COc1cc2nccc(Oc3c(F)cc(NC(=O)NCCO)c(Cl)c3F)c2cc1C(N)=O`
Data returned: > 0.1 µM

Data request: Supply reported IC50 belonging to this compound: `COc1cc2nccc(Oc3c(F)cc(NC(=O)N4CC[C@H](O)C4)c(Cl)c3F)c2cc1C(N)=O`
Data returned: > 0.1 µM

Data request: Supply reported IC50 belonging to this compound: `COc1cc2nccc(Oc3c(F)cc(NC(=O)NC4CC4)c(Cl)c3OC(C)C)c2cc1C(N)=O`
Data returned: > 0.1 µM

Data request: Supply reported IC50 belonging to this compound: `COc1cc2nccc(Oc3c(F)cc(NC(=O)NC4CC4)c(Cl)c3N(C)C3CC3)c2cc1C(N)=O`
Data returned: > 0.1 µM

Data request: Supply reported IC50 belonging to this compound: `COc1cc2nccc(Oc3c(F)cc(NC(=O)NC4CC4)c(Cl)c3OCC(F)(F)F)c2cc1C(N)=O`
Data returned: > 0.1 µM
